- subject_of_test: human αvβ8 integrin (Homo sapiens, UniProt P06756+P26012)
- assay_summary: LAP(TGF-β1)-αvβ8 competitive solid-phase ELISA binding assay
- test_conditions: competitive ELISA, immobilized LAP, soluble integrin
- Method: The affinity and selectivity of the integrin peptide ligands were ascertained according to a modified method previously reported by some of us.[33],[47] The binding was determined in a competitive solid-phase binding assay using extracellular matrix proteins, soluble integrins, and pertinent integrin-specific antibodies in an enzyme-linked immunosorbent assay (ELISA). The experimental procedure is as described for the αvβ6 assay, except for the following modifications. […]
Listing: pIC50 of selected molecules
Value format note: pIC50 is -log10 of concentration (mol/L); just state the number.

Recorded pIC50, per entry:
N=C(N)NCCC[C@@H]1NC(=O)CC[C@@H](C(N)=O)NC(=O)[C@H](C2CCCCC2)NC(=O)[C@H](CC(=O)O)NC(=O)CNC1=O [compound 1, [Arg-Gly-Asp-Chg-Glu]-CONH2] : 6.76
CN1C(=O)[C@H](C2CCCCC2)NC(=O)[C@H](CC(=O)O)NC(=O)CNC(=O)[C@H](CCCNC(=N)N)NC(=O)CC[C@H]1C(N)=O [compound 6, [Arg-Gly-Asp-Chg-(NMe)Glu]-CONH2] : 7.22
CN1C(=O)CC[C@@H](C(N)=O)NC(=O)[C@H](C2CCCCC2)NC(=O)[C@H](CC(=O)O)NC(=O)CNC(=O)[C@@H]1CCCNC(=N)N [compound 2, [(NMe)Arg-Gly-Asp-Chg-Glu]-CONH2] : 5.65

Attention now turns to another entry.
Given CN1CC(=O)N[C@@H](CC(=O)O)C(=O)N[C@@H](C2CCCCC2)C(=O)N[C@H](C(N)=O)CCC(=O)N[C@@H](CCCNC(=N)N)C1=O [compound 3, [Arg-(NMe)Gly-Asp-Chg-Glu]-CONH2] , respond with its pIC50. 5.48

Entry source: paper PMC8279406
